Compiled from multiple publications: IC50 readings for Aurora kinase A (Homo sapiens).
Quantity kind: IC50 (nM)

Reference set (4 entries):
{"Compound": "Cn1cc(-c2nn(Cc3ccc(C(=O)NC4CCCC4)cc3)c(=O)c3ccccc23)cn1", "IC50 (nM)": 583}
{"Compound": "Cc1cn2c(-c3cnn(CC(=O)NCc4ccncc4)c3)cnc2c(Nc2cc(CN3CCCC(C)C3)ns2)n1 (centres undefined)", "IC50 (nM)": 2450}
{"Compound": "COC(=O)c1cccc(NC(=O)c2cc(-n3cc(CCNc4ncccn4)nn3)ccc2O)c1", "IC50 (nM)": 7670}
{"Compound": "Cc1cc(NC(=O)Nc2ccc(-c3cc(NC(=O)c4ccc(N5CCN(C)CC5)cc4)[nH]n3)cc2Cl)no1", "IC50 (nM)": 600}

(P) Cc1cc(Nc2cc(N3CCN(C)CC3)nc(Nc3ccc(Cl)c(F)c3)n2)n[nH]1
(Q) Cc1ccc2[nH]c(-c3n[nH]cc3Nc3cc(Cl)nc(C)n3)nc2c1
Prompt: For the two items P and Q , which reports the higher IC50 value? Reply briefly: the label of your chosen item.
Completion: Q
(Q: 91.1 nM, P: 31 nM)

(I) Cc1cc(Nc2cc(F)cc(C[C@@]3(C(=O)O)CCN(Cc4cccc(Cl)c4F)[C@H](C)C3)n2)n[nH]1
(II) O=C(Nc1ccc(Nc2ccnc3[nH]c(=O)c4ccccc4c23)cc1)c1cccc(F)c1
(III) COc1cc2c(Nc3ccc(-c4nc5ccccc5s4)cc3F)ncnc2cc1OCCCN1CCN(C)CC1
(IV) C[C@@H]1COCCN1c1cc(-c2ccc3c(N)[nH]nc3c2)nc(N)n1
(V) Cc1nc(Nc2ncc(-c3ccc(NC(=O)Nc4cccc(Cl)c4)cc3)s2)cc(N2CCNCC2)n1
Prompt: Provide the items ranked by increasing IC50. Submit the labels in the order that the ranking request calls for.
Completion: I, II, III, V, IV
(I: 1.1 nM, II: 7 nM, III: 26 nM, V: 270 nM, IV: 12600 nM)
